- Test system: Plasmodium falciparum NF54/iGP1_RE9H ulg8 stage V gametocytes
- MEASUREMENT_DESCRIPTION: gametocyte viability (luciferase signal relative to DMSO control) (% of DMSO control); higher = less gametocytocidal activity, active = 50 or less
- TEST_PARAMETERS: concentration: 10 µM; exposure time: 72 h
Structures can show the parent of a compound that is named as a salt. In all, about 1,300 compounds went through this assay and about 40 (3%) showed activity. Shown is part of a subset that was picked to be rich in actives.
I'd appreciate it if you could supply gametocyte viability values for the items below.
Answers are plain numbers.

For orientation, consider the following solved cases.
COMPOUND	gametocyte viability
O=C1CC2(CCCC2)CC(=O)N1CCCCN1CCN(c2ncccn2)CC1 [Buspirone hydrochloride]	65.7
CN(C)CCc1c[nH]c2ccc(C[C@H]3COC(=O)N3)cc12	81.7
CC(C)(Sc1cc(C(C)(C)C)c(O)c(C(C)(C)C)c1)Sc1cc(C(C)(C)C)c(O)c(C(C)(C)C)c1	85.2

Entry "O=C1[C@H]2CCCC[C@H]2C(=O)N1CCCCN1CCN(c2nsc3ccccc23)CC1" ; gametocyte viability = 39.7

###

- Tested on: Plasmodium falciparum NF54/iGP1_RE9H ulg8 stage V gametocytes
- MEASUREMENT_DESCRIPTION: gametocyte viability (luciferase signal relative to DMSO control) (% of DMSO control); higher = less gametocytocidal activity, active = 50 or less
- TEST_PARAMETERS: concentration: 1 µM; exposure time: 72 h
Structures can show the parent of a compound that is named as a salt. About 40 (3%) of roughly 1,300 compounds showed activity. The sample holds actives, similar compounds and a random draw of the others, so the mix is not that of the screen.
I'd appreciate it if you could supply gametocyte viability values for the items below.

MOLECULE	DATA_VALUE
CSc1ccc2c(c1)N(CCC1CCCCN1C)c1ccccc1S2 (stereo unspecified) [Thioridazine hydrochloride]	87.7 (inactive)
CN1CCCCC1CCN1c2ccccc2Sc2ccc([S+](C)[O-])cc21 (stereo unspecified) [Mesoridazine besylate]	88.9 (inactive)
CN(C)CCOC(C)(c1ccccc1)c1ccccn1 (stereo unspecified) [Doxylamine succinate]	87.8 (inactive)
CN(C)CCCN1c2ccccc2Sc2ccc(C(F)(F)F)cc21 [Triflupromazine hydrochloride]	83.7 (inactive)
COc1ccc(/C=C/C(=O)Nc2ccccc2C(=O)O)cc1OC [Tranilast]	68.5 (inactive)

# return gametocyte viability for each item in the list
1. Cc1cccn2c(=O)c(-c3nnn[nH]3)cnc12 [Pemirolast potassium]
2. Cc1ncc(C[n+]2csc(CCO)c2C)c(N)n1 [Thiamine hydrochloride]
3. CC(=O)OCC(=O)[C@@]12N=C(C)O[C@@H]1C[C@H]1[C@@H]3CCC4=CC(=O)C=C[C@]4(C)[C@H]3[C@@H](O)C[C@@]12C [Deflazacort]

Reply:
80.6 (inactive)
94 (inactive)
95.7 (inactive)

# return gametocyte viability for each item in the list
1. CCCc1nc(C)c2c(=O)nc(-c3cc(S(=O)(=O)N4CCN(CC)CC4)ccc3OCC)[nH]n12 [Vardenafil]
2. CCCc1nn(C)c2c(=O)[nH]c(-c3cc(S(=O)(=O)N4CCN(C)CC4)ccc3OCC)nc12 [Sildenafil]
3. CC(C)c1nc(CN(C)C(=O)N[C@H](C(=O)N[C@@H](Cc2ccccc2)C[C@H](O)[C@H](Cc2ccccc2)NC(=O)OCc2cncs2)C(C)C)cs1 [Ritonavir]
4. N=C(N)NCc1cccc(I)c1 [Iobenguane sulfate]
5. Cc1c(Cl)cccc1Nc1ccccc1C(=O)O [Tolfenamic acid]
6. COc1cccc2c1C(=O)c1c(O)c3c(c(O)c1C2=O)C[C@@](O)(C(=O)CO)C[C@@H]3O[C@H]1C[C@H](N)[C@H](O)[C@H](C)O1 [Doxorubicin hydrochloride]
7. CNC1(C)C2CCC(C2)C1(C)C (stereo unspecified) [Mecamylamine hydrochloride]

Reply:
70.1 (inactive)
90.3 (inactive)
66.4 (inactive)
99.3 (inactive)
83.6 (inactive)
64.5 (inactive)
93.8 (inactive)

Entry COCCc1ccc(OCC(O)CNC(C)C)cc1 (racemic) [Metoprolol-(+,-) (+)-tartrate salt] ; gametocyte viability = 94 (inactive)

###

- Test system: Plasmodium falciparum NF54/iGP1_RE9H ulg8 stage V gametocytes
- MEASUREMENT_DESCRIPTION: gametocyte viability (luciferase signal relative to DMSO control) (% of DMSO control); higher = less gametocytocidal activity, active = 50 or less
- TEST_PARAMETERS: concentration: 1 µM; exposure time: 72 h
Counter-ions that a name gives are not always drawn. The whole screen tested about 1,300 compounds, of which about 40 (3%) showed activity. Many of the other results were omitted from the sample, so actives are more common in it than they were.
PROPERTY_LABEL: gametocyte viability
Answers are plain numbers.

For orientation, consider the following solved cases.
COMPOUND	gametocyte viability
C[C@H]1[C@H](NC(=O)/C(=N\OC(C)(C)C(=O)O)c2csc(N)n2)C(=O)N1S(=O)(=O)O	96.9
Cc1scc2c1N(C(=O)CN1CCN(C)CC1)c1ccccc1NC2=O [Telenzepine dihydrochloride]	97.8
CCN(CC)CCNC(C(=O)OCCC(C)C)c1ccccc1 (centres undefined) [Camylofine chlorhydrate]	79.9
CC(C)(S)[C@@H](N)C(=O)O	92.4
CCCCC1C(=O)N(c2ccccc2)N(c2ccccc2)C1=O	91

# return gametocyte viability for each item in the list
1. O=C1CC[C@@H](C(=O)N2CSC[C@H]2C(=O)O)N1
2. Cc1c(N(C)C)c(=O)n(-c2ccccc2)n1C
3. CCCCC(O)c1ccccc1 (centres undefined)
4. Cn1c(=O)c2c(ncn2CC2OCCO2)n(C)c1=O

Reply:
[83.8, 99, 82, 86.6]

###

- System: Plasmodium falciparum NF54/iGP1_RE9H ulg8 stage V gametocytes
- MEASUREMENT_DESCRIPTION: gametocyte viability (luciferase signal relative to DMSO control) (% of DMSO control); higher = less gametocytocidal activity, active = 50 or less
- TEST_PARAMETERS: concentration: 10 µM; exposure time: 72 h
Where a name gives a salt, the structure may show the parent alone. Out of some 1,300 compounds screened, about 40 (3%) showed activity. The entries come from a sample that favours actives as a whole.
Hi! Could you tag entries with gametocyte viability below 80 as 1, and those at or above as 0? Much appreciated.

Study these solved cases before continuing.
MOLECULE	ASSIGNED_CLASS
O=C(O)[C@H]1/C(=C/CO)O[C@@H]2CC(=O)N21 [Potassium clavulanate]	0
CN1CCN2c3ncccc3Cc3ccccc3C2C1 (stereo not drawn)	1
C[C@]12CC[C@@H]3c4ccc(O)cc4CC[C@H]3[C@@H]1CCC2=O	0
Nc1ccccc1S(N)(=O)=O [2-Aminobenzenesulfonamide]	0

Query: Is gametocyte viability of CN(C)c1ccc(O)c2c1C[C@H]1C[C@H]3[C@H](N(C)C)C(=O)C(C(N)=O)=C(O)[C@@]3(O)C(=O)C1=C2O [Minocycline hydrochloride] strictly below 80?
Reply: 0

Query: Is gametocyte viability of Cc1cc(N)c2ccccc2[n+]1CCCCCCCCCC[n+]1c(C)cc(N)c2ccccc21 [Dequalinium dichloride] strictly below 80?
Reply: 1

###

- System: Plasmodium falciparum NF54/iGP1_RE9H ulg8 stage V gametocytes
- MEASUREMENT_DESCRIPTION: gametocyte viability (luciferase signal relative to DMSO control) (% of DMSO control); higher = less gametocytocidal activity, active = 50 or less
- TEST_PARAMETERS: concentration: 1 µM; exposure time: 72 h
Structures can show the parent of a compound that is named as a salt. The whole screen tested about 1,300 compounds, of which about 40 (3%) showed activity. This excerpt belongs to a sample that is enriched for actives.
Hi! Could you tag entries with gametocyte viability below 90 as MET, and those at or above as NOT MET? Much appreciated.

Query: Is gametocyte viability of "O=C1CN(/N=C/c2ccc([N+](=O)[O-])o2)C(=O)N1" strictly below 90?
Reply: MET

Query: Is gametocyte viability of C=C1c2c(Cl)ccc(O)c2C(O)=C2C(=O)[C@]3(O)C(O)=C(C(N)=O)C(=O)[C@@H](N(C)C)[C@@H]3[C@@H](O)[C@H]12.O=C(O)c1cc(S(=O)(=O)O)ccc1O [Meclocycline sulfosalicylate] strictly below 90?
Reply: MET

Query: Is gametocyte viability of CC1c2cccc(O)c2C(O)=C2C(=O)C3(O)C(O)=C(C(N)=O)C(=O)C(N(C)C)C3C(O)C21 (configuration not stated) [Doxycycline hydrochloride] strictly below 90?
Reply: NOT MET

###

- Test system: Plasmodium falciparum NF54/iGP1_RE9H ulg8 stage V gametocytes
- MEASUREMENT_DESCRIPTION: gametocyte viability (luciferase signal relative to DMSO control) (% of DMSO control); higher = less gametocytocidal activity, active = 50 or less
- TEST_PARAMETERS: concentration: 1 µM; exposure time: 72 h
Counter-ions that a name gives are not always drawn. Among all 1,300 compounds or so, about 40 (3%) showed activity. This is one part of a sample in which actives are shown more often than they occur.
PROPERTY_LABEL: gametocyte viability
Numbers only.

For orientation, consider the following solved cases.
MOLECULE	gametocyte viability
CC(C)(Oc1ccc(CCNC(=O)c2ccc(Cl)cc2)cc1)C(=O)O [Bezafibrate]	98.6
CC(C)CN(C[C@@H](O)[C@H](Cc1ccccc1)NC(=O)O[C@H]1CO[C@H]2OCC[C@H]21)S(=O)(=O)c1ccc(N)cc1	82.6
COc1cc(C(=O)N2CCOCC2)cc(OC)c1OC	81.7
CC(C)NCC(O)c1ccc(NS(C)(=O)=O)cc1 (centres undefined) [Sotalol hydrochloride]	83.1
CC(C)(C)CC(C)(C)c1ccc(OCCOCC[N+](C)(C)Cc2ccccc2)cc1 [Benzethonium chloride]	82.1
C[N+](C)(CCOc1ccccc1)Cc1ccccc1.O=C([O-])c1cc2ccccc2cc1O [Bephenium hydroxynaphthoate]	87.3
CC(C)NC[C@@H](O)COc1cccc2ccccc12 [(R)-Propranolol hydrochloride]	93.4
CC(C)(Sc1cc(C(C)(C)C)c(O)c(C(C)(C)C)c1)Sc1cc(C(C)(C)C)c(O)c(C(C)(C)C)c1	84.2

# return gametocyte viability for each item in the list
1. CN1CCc2c(c3ccccc3n2Cc2ccccc2)C1 [Mebhydroline 1,5-naphtalenedisulfonate]
2. CC(C)(C)NC(=O)[C@@H]1C[C@@H]2CCCC[C@@H]2CN1C[C@@H](O)[C@H](Cc1ccccc1)NC(=O)[C@H](CC(N)=O)NC(=O)c1ccc2ccccc2n1 [Saquinavir mesylate]
3. Cc1c(C)c2c(c(C)c1O)CCC(C)(COc1ccc(CC3SC(=O)NC3=O)cc1)O2 (centres undefined)
4. CCc1ccc(CCOc2ccc(CC3SC(=O)NC3=O)cc2)nc1 (centres undefined)
5. CN1CCCN=C1/C=C/c1cccc(O)c1 [Oxantel pamoate]
6. CC1(O)CCOC(=O)C1 (centres undefined)

Reply:
1: 88.8; 2: 82.4; 3: 81.7; 4: 86; 5: 80.4; 6: 86.7
